method notes: small-molecule microarray binders of probe aNog, primary screen, biochemical, biotinylated probe, 635/667 nm fluorescence (AID 1115);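 note: probe is biotinylated aNog protein used at 0.15 µg/mL for 1 h at 4 C; z-score combines 667 nm fluorescence of each spot with its signal to noise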
run parameters: higher = more signal
We'd kindly ask you to apply these composite z-score classes: lower band: < 0.2; central band: ≥ 0.2 and < 0.5; upper band: ≥ 0.5

molecule	label value
COCCOC(=O)N1C(=O)[C@@]2(c3cc(C#CCC(C(=O)OC)C(=O)OC)ccc31)[C@H](c1ccc(OCCO)cc1)N1[C@H](c3ccccc3)[C@H](c3ccccc3)OC(=O)[C@H]1[C@@H]2C(=O)N1CCN(c2ncccn2)CC1	central band
COc1cc2c(cc1OC)CN(C(=O)[C@@H]1[C@H]3C(=O)O[C@H](c4ccccc4)[C@H](c4ccccc4)N3[C@H](c3ccccc3OCCO)[C@@]13C(=O)Nc1ccc(C#CC4(O)CCCCCC4)cc13)CC2	lower band
CN(C)CCCCNC(=O)[C@H]1C[C@H]2C(=O)N3CCC[C@H]3C(=O)N2[C@H]1c1ccc(O)cc1	central band
Cc1ccc(S[C@]2(C(=O)O)CC(=O)N(Cc3ccccc3Cl)[C@@H]2c2ccc(CO)cc2)cc1	upper band
NC(=O)NCC#Cc1ccc2c(c1)[C@]1(C(=O)N2)[C@H](C(=O)O)[C@H]2C(=O)O[C@H](c3ccccc3)[C@H](c3ccccc3)N2[C@@H]1c1ccccc1OCCO	upper band
C=C(COC)/C(=C/C[C@@H](OC(=O)c1ccncc1)c1ccc(OCCO)cc1)c1cnc2ccccc2c1	upper band
O=C1C[C@@](C(=O)NCC(F)(F)F)(c2ccc([N+](=O)[O-])cc2)[C@@H](c2ccc(CO)cc2)N1C1CCCCC1	lower band
COCCOC(=O)N1C(=O)[C@@]2(c3cc(C#Cc4ccc(OC)cc4)ccc31)[C@H](C(=O)NC[C@H](O)c1ccccc1)[C@H]1C(=O)O[C@H](c3ccccc3)[C@H](c3ccccc3)N1[C@@H]2c1ccc(O)cc1	central band
COCC(=C=CC[C@H](O)c1ccc(OCCO)cc1)C[C@H](O)COCc1ccccc1	lower band
C=CCOC(=O)[C@@H]1[C@H]2C(=O)O[C@H](c3ccccc3)[C@H](c3ccccc3)N2[C@H](c2ccc(OCCOC(=O)[C@H]3C[C@H]4C(=O)N[C@@H](CCCCNC(C)=O)C(=O)N4[C@H]3c3cccc(OCCO)c3)cc2)[C@@]12C(=O)Nc1ccc(I)cc12	lower band
COC(=O)C1(Cc2ccccc2)C=C2C(=C(C(C)C)C(=O)C2C)CN1 (stereo not drawn)	upper band
C=C[C@@H](C)[C@H](OC(=O)Nc1ccc(SC)cc1)c1ccc(OCCO)cc1	upper band
COc1ccc(CCNC(=O)[C@@]2(Sc3ccc(C)cc3)CC(=O)N(Cc3cc(C(F)(F)F)cc(C(F)(F)F)c3)[C@@H]2c2ccc(CO)cc2I)cc1	lower band

* * *

measurement target: Torsin-1A-interacting protein 2 (Homo sapiens) (UniProt Q8NFQ8)
Sequence (Q8NFQ8 whole entry, looked up): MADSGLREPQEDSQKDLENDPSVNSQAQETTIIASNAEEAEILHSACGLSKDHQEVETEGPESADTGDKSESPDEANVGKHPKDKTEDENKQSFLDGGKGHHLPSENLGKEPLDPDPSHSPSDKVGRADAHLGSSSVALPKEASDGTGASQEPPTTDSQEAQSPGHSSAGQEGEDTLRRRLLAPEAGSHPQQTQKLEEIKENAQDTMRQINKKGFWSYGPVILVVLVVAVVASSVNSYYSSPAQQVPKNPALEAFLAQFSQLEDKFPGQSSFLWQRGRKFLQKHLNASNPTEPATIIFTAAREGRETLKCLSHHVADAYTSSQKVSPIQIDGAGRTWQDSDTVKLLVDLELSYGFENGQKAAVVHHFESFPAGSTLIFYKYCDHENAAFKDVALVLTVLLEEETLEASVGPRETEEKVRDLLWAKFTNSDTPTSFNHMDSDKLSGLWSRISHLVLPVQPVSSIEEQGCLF
method notes: LULL1 binders on small-molecule microarray, primary screen, cell lysate, human LULL1 lysate, 635/667 nm fluorescence (AID 1092);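 note: probe is lysate of COS7 cells overexpressing human LULL1; score merges per-feature 667 nm fluorescence with signal-to-noise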
run parameters: hLULL1 lysate binding, 635 nm fluorescence, higher = more signal
Param threshold (0.8) applies to composite z-score; output 1.0 when value >= threshold, 0.0 when value < threshold.

molecule	label value
CN(C)CCCCNC(=O)[C@H]1C[C@H]2C(=O)N3CCC[C@H]3C(=O)N2[C@H]1c1ccc(O)cc1	0.0
COCCOC(=O)N1C(=O)[C@@]2(c3cc(C#Cc4ccc(OC)cc4)ccc31)[C@H](C(=O)N1CCCCCCC1)[C@H]1C(=O)O[C@H](c3ccccc3)[C@H](c3ccccc3)N1[C@@H]2c1ccc(O)cc1	1.0
CCOC(=O)C[C@H]1[C@H](OC(=O)c2ccccc2-c2ccccc2)[C@@H](NC(=O)c2ccc3ccccc3n2)c2cc(OCCCO)ccc2N1C(=O)c1ccc2ccccc2n1	1.0
COc1cc2c(cc1OC)CN(C(=O)[C@H]1[C@@H]3C(=O)O[C@@H](c4ccccc4)[C@@H](c4ccccc4)N3[C@@H](c3ccc(OCCO)cc3)[C@]13C(=O)Nc1ccc(C#CC4(O)CCCCCC4)cc13)CC2	1.0
COc1ccc([Si](C)(C)[C@H]2[C@H](CCn3cc([C@H](O)c4ccccc4)nn3)O[C@@]3(C(=O)N(Cc4ccc(N5CCC5=O)cc4)c4ccccc43)[C@@H]2C)cc1	0.0
O=C1O[C@@H](c2ccccc2)[C@@H](c2ccccc2)N2[C@@H](c3ccc(O)cc3)[C@]3(C(=O)Nc4ccc(C#CC5=CCCCC5)cc43)[C@@H](C(=O)N3CCN(c4ncccn4)CC3)[C@H]12	1.0
COc1c(C)cc(-c2cc3c(c(Cc4ccccc4)n2)[Si](C(C)C)(C(C)C)OC3)cc1C	0.0
CC(C)C(O)C1C=CC2C(=O)N(C)C(=O)C2N1Nc1ccccc1 (stereo not drawn)	1.0
COc1c(C)cc(-c2cc3c(c(-c4ccccc4)n2)[Si](C(C)C)(C(C)C)OC3)cc1C	0.0
O=C1O[C@H](c2ccccc2)[C@H](c2ccccc2)N2[C@H]1[C@@H](C(=O)O)[C@]1(C(=O)Nc3ccccc31)[C@H]2c1ccc(O)cc1	1.0
Cc1ccc(S[C@]2(C(=O)NCC(C)C)CC(=O)N(Cc3ccccc3Cl)[C@@H]2c2ccc(CO)cc2I)cc1	1.0
CCCc1cccc(=O)o1	1.0
CC(=O)N1Cc2ccccc2C[C@]2(N=C(c3ccc(OCCCO)cc3)O[C@@H]2c2ccccc2)C1=O	1.0

Taken from PubChem BioAssay.
